# assayName: clinical
# recordedConditions: human, in vivo, po
In this section, each of the molecules is paired with its reported bioavailability.

molecule	bioavailability
COc1ccc(C(CN(C)C)C2(O)CCCCC2)cc1 (stereo not given)	≤ 20%
CC(C)=CCN1CC[C@@]2(C)c3cc(O)ccc3C[C@@H]1[C@@H]2C	49%
CCOC(=O)c1ncn2c1CN(C)C(=O)c1cc(F)ccc1-2	< 20%
Cc1ncsc1CCCl	< 20%
O=P1(N(CCCl)CCCl)NCCCO1 (stereo not given) [CYCLOPHOSPHAMIDE ANHYDROUS]	> 80%

---

Here, each record is paired with measured bioavailability data.
# assayName: clinical
# recordedConditions: human, in vivo, po
measuredEndpoint: bioavailability

compound	measured
O=C1CN=C(c2ccccc2)c2cc([N+](=O)[O-])ccc2N1	79%
O=C1Nc2ccc(Cl)cc2C(c2ccccc2Cl)=NC1O (centres undefined)	≥ 80%
CN1C(=O)CC(=O)N(c2ccccc2)c2cc(Cl)ccc21	≥ 80%
CC(=O)[C@H]1CC[C@H]2[C@@H]3CCC4=CC(=O)CC[C@]4(C)[C@H]3CC[C@]12C	< 20%
COc1ccc2c3c1O[C@H]1[C@@H](O)C=C[C@H]4[C@@H](C2)N(C)CC[C@@]341	79%
CC(C(=O)O)c1ccc(-c2ccccc2)c(F)c1 (centres undefined)	≥ 80%
O=C(O)CCCc1ccc(N(CCCl)CCCl)cc1	> 80%
CC(C)N(CCC(C(N)=O)(c1ccccc1)c1ccccn1)C(C)C (centres undefined) [DISOPYRAMIDE]	≥ 80%
Cc1nc2n(c(=O)c1CCN1CCC(c3noc4cc(F)ccc34)CC1)CCCC2	79%
Oc1ccc(C(O)C2CCCCN2)cc1O (centres undefined)	< 20%
C[C@]12CC[C@H]3[C@@H](CCC4=CC(=O)CC[C@@]43C)[C@@H]1CC[C@@H]2O	< 20%
CCCCCc1cc(O)c2c(c1)OC(C)(C)[C@@H]1CCC(C)=C[C@@H]21	< 20%
CN1CCN(C2=Nc3cc(Cl)ccc3Nc3ccccc32)CC1	79%
CCN(CC)C(=O)N[C@H]1C[C@@H]2c3cccc4[nH]cc(c34)C[C@H]2N(C)C1 [TERGURIDE]	≤ 20%
CN1C(=O)NC(=O)C(C)(C2=CCCCC2)C1=O (centres undefined) [HEXOBARBITAL]	≥ 80%
Oc1ccc2c3c1O[C@H]1[C@@H](O)CC[C@@]4(O)[C@@H](C2)N(CC2CCC2)CC[C@]314	< 20%
Oc1ncnc2[nH]ncc12	≥ 80%
COC(=O)C1=C(C)NC(C)=C(C(=O)OC)C1c1ccccc1[N+](=O)[O-]	79%
CN(C)CCC=C1c2ccccc2CCc2ccccc21	49%

Data credit: ChEMBL document CHEMBL1133765
